Please respond with reported Avg 2 h Coupled Exchange IC50 for every item in the list.
# TARGET OR SYSTEM: GDP-bound KRAS protein (aa 1-169), containing both G12D and C118A amino acid substitutions (Homo sapiens, UniProt P01116, C118A/G12D)
# Sequence (P01116 1-169 isoform P01116-2 G12D/C118A): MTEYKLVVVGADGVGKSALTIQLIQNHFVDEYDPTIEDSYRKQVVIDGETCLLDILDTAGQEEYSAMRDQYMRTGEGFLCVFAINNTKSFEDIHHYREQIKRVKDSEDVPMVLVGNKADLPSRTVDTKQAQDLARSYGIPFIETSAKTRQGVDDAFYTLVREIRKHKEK
# EXPERIMENT DESCRIPTION: KRAS G12D Coupled Nucleotide Exchange Assay
# Format: biochemical
# CONDITION SUMMARY: 2 h compound pre-incubation
Numbers only, in nM.

Worked cases, Avg 2 h Coupled Exchange IC50 given:
Oc1cc(-c2ccc3c(C4=CC5CCC(C4)N5)nc(OC[C@@]45CCCN4C[C@H](F)C5)nc3c2)c2ccccc2c1 (stereo partly drawn) [Example 108] : 671
CCc1c(F)ccc2cc(O)cc(-c3ccc4c(N5C[C@H]6CC[C@@H](C5)N6)nc(OCC(C)(C)O)nc4c3F)c12 [Example 131] : 5
Oc1cc(-c2ccc3c(N4C[C@H]5CC[C@@H](C4)N5)nc(OC[C@@]45CCCN4C[C@H](F)C5)nc3c2F)c2c(F)c(F)ccc2c1 [Example 142] : 2
CCc1c(F)ccc2cc(O)cc(-c3ccc4c(N5C[C@H]6COC[C@@H](C5)N6)nc(OC[C@@]56CCCN5C[C@H](F)C6)nc4c3F)c12 [Example 138] : 4
Oc1cc(-c2ccc3c(N4C[C@H]5CC[C@@H](C4)N5)nc(OC[C@]45CCCN4C[C@H](F)C5)nc3c2F)c2ccccc2c1 [Example 44] : 2
CCc1c(F)ccc2cc(O)cc(-c3c(F)cc4c(N5C[C@@H]6CC[C@H]5CN6)nc(OC[C@@H]5C[C@@H](F)CN5C)nc4c3F)c12 [Example 94] : 4

Take each entry in turn and give its Avg 2 h Coupled Exchange IC50.
1. Oc1cc(-c2ccc3c(N4C[C@H]5CC[C@@H](C4)N5)nc(OC[C@@]45CCCN4C[C@H](F)C5)nc3c2F)c2ccccc2c1 [Example 46]
2. Oc1cc(-c2ccc3c(N4C[C@@H]5CC[C@H]4CN5)nc(OC[C@@]45CCCN4C[C@H](F)C5)nc3c2F)c2c(F)c(F)ccc2c1 [Example 140]
3. CCc1c(F)ccc2cc(O)cc(-c3c(O)cc4c(N5CC6CCC(C5)N6)nc(OCC56CCCN5C[C@H](F)C6)nc4c3F)c12 (atropisomer, axis not shown; (M)) [Example 234]
4. Oc1cc(-c2c(Cl)cc3c(N4C[C@H]5CC[C@@H](C4)N5)nc(OC[C@@]45CCCN4C[C@H](F)C5)nc3c2F)c2ccccc2c1 [Example 52]
5. Oc1cc(-c2c(Cl)cc3c(N4C[C@H]5CC[C@@H](C4)N5)nc(OC[C@@]45CCCN4C[C@H](F)C5)nc3c2F)c2c(Cl)cccc2c1 [Example 86]
6. Oc1cc(-c2c(F)cc3c(N4C[C@H]5COC[C@@H](C4)N5)nc(OC[C@@]45CCCN4C[C@H](F)C5)nc3c2F)c2ccccc2c1 [Example 15]

1: 2; 2: 1; 3: 2; 4: 3; 5: 2; 6: 14

----------
# TARGET OR SYSTEM: GDP-bound KRAS protein (aa 1-169), containing both G12D and C118A amino acid substitutions (Homo sapiens, UniProt P01116, C118A/G12D)
# EXPERIMENT DESCRIPTION: KRAS G12D Coupled Nucleotide Exchange Assay
# Type: biochemical
# CONDITION SUMMARY: 2 h compound pre-incubation
Please respond with reported Avg 2 h Coupled Exchange IC50 for every item in the list.
Give bare numbers, in nM.

Worked cases, Avg 2 h Coupled Exchange IC50 given:
Oc1cc(-c2ccc3c(N4C[C@@H]5C[C@H]4CN5)nc(OC[C@@]45CCCN4C[C@H](F)C5)nc3c2F)c2ccccc2c1 [Example 50] : 7
Oc1cc(-c2c(Cl)cc3c(N4C[C@H]5CC[C@@H](C4)N5)nc(OC[C@@]45CCCN4C[C@H](F)C5)nc3c2F)c2c(F)c(F)ccc2c1 [Example 81] : 4
CCc1c(F)ccc2cc(O)cc(-c3c(N)cc4c(N5C[C@H]6CC[C@@H](C5)N6)nc(OC[C@@]56CCCN5C[C@H](F)C6)nc4c3F)c12 [Example 202] : 4

Take each entry in turn and give its Avg 2 h Coupled Exchange IC50.
1. CCc1c(F)ccc2cc(O)cc(-c3c(F)cc4c(N5C6CCC5C(=O)NC6)nc(OC[C@@]56CCCN5C[C@H](F)C6)nc4c3F)c12 (single isomer, unassigned) [Example 176]
2. C#Cc1cccc2cc(O)cc(-c3ccc4c(N5C[C@H]6CC[C@@H](C5)N6)nc(OC[C@@]56CCCN5C[C@H](F)C6)nc4c3F)c12 [Example 185]
3. CCc1c(F)ccc2cccc(-c3ccc4c(N5C[C@H]6CC[C@@H](C5)N6)nc(OC[C@@]56CCCN5C[C@H](F)C6)nc4c3F)c12 [Example 90]
4. CCc1c(F)ccc2cc(O)cc(-c3cc4nc(OC[C@@]56CCCN5C[C@H](F)C6)nc(N5C[C@H]6CC[C@@H](C5)N6)c4cc3F)c12 [Example 83]

1: 7; 2: 1; 3: 3; 4: 2

Take each entry in turn and give its Avg 2 h Coupled Exchange IC50.
1. Fc1cc2c(N3[C@@H]4CC[C@H]3CNC4)nc(OC[C@@]34CCCN3C[C@H](F)C4)nc2c(F)c1-c1cccc2cccc(Cl)c12 [Example 22]
2. CCc1cccc2cccc(-c3cc4nc(OC[C@@]56CCCN5C[C@H](F)C6)nc(N5C[C@H]6CC[C@@H](C5)N6)c4cc3F)c12 [Example 72]
3. Fc1c(-c2ccc(Cl)c3ccccc23)c(Cl)cc2c(N3C[C@H]4CC[C@@H](C3)N4)nc(OC[C@@]34CCCN3C[C@H](F)C4)nc12 [Example 79]
4. Nc1cc(F)c(F)c(-c2c(F)cc3c(N4CC5CCC(C4)N5)nc(OC[C@@]45CCCN4C[C@H](F)C5)nc3c2F)c1 [Example 118]
5. CCc1c(F)ccc2cccc(-c3c(F)cc4c(N5C[C@H]6CC[C@@H](C5)N6)nc(OC[C@@]56CCCN5C[C@H](F)C6)nc4c3F)c12 [Example 69]

14
18
26
39
2

Data origin: patent US20250059205A1
